Reference source for all entries: patent US5753715A

targetEntity: Kinase A and SpoOF (Bacillus subtilis)
Sequence (P16497 whole entry): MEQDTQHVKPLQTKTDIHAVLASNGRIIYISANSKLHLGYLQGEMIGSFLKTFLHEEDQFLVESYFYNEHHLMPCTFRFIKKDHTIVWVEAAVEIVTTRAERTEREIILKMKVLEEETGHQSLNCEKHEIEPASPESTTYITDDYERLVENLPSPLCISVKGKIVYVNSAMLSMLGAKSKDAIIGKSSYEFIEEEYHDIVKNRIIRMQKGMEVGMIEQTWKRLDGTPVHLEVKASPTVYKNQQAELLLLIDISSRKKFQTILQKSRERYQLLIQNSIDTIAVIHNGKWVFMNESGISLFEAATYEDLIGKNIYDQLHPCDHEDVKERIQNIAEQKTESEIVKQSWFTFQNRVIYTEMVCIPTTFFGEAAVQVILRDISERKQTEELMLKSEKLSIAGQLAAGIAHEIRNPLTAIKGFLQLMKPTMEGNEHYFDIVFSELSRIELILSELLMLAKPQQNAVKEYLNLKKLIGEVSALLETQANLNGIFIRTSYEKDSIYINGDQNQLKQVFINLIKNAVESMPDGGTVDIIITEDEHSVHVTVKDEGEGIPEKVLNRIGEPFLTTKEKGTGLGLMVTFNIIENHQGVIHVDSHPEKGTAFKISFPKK
test: Autophosphorylation of Kinase A and Transphosphorylation of SPoOF Assay
Format: biochemical
testConditions: inhibition of Kinase A autophosphorylation / SpoOF transphosphorylation, [32P]ATP, gel, phosphoimager
resultType: IC50
Please state the value followed by its unit.

Study these solved cases before continuing.
compound="NCc1ccc(OCCC2(Cc3cccc(Cl)c3)C=CCCC2)cc1 (stereo not drawn) [Compound 5]" valuereported="18.5 mM"
compound="CNCCCc1ccc(OCCC2(Cc3ccccc3)C=CCCC2)cc1 (stereo not drawn) [Compound 19]" valuereported="82.1 mM"
compound="CNCCCc1ccc(OCCC2(c3ccc(F)cc3)C=CCCC2)cc1 (stereo not drawn) [Compound 24]" valuereported="185 mM"
compound="CNCCCc1cnc(SCCC2(Cc3ccccc3)C=CCCC2)nc1 (stereo not drawn) [Compound 8]" valuereported="92.3 mM"
compound="OCCNCCCc1ccc(OCCC2(c3ccc(F)cc3)C=CCCC2)cc1 (stereo not drawn) [Compound 25]" valuereported="200 mM"
compound="NC(=O)c1ccc(OCCC2(Cc3cccc(Cl)c3)C=CCCC2)cc1 (stereo not drawn) [Compound 7]" valuereported="330 mM"
compound="COc1ccc(CC2(CCOc3ccc(CNC(=N)N)cc3)C=CCCC2)cc1 (stereo not drawn) [Compound 57]" valuereported="46.6 mM"
compound="NCCCc1ccc(OCCC2(Cc3ccccc3)C=CCCC2)cc1 (stereo not drawn) [Compound 18]" valuereported="261 mM"

Task: Quick check: IC50 on Kinase A and SpoOF (Bacillus subtilis), item COc1ccc(CC2(CCOc3cccc(CNC(=N)N)c3)C=CCCC2)cc1 (stereo not drawn) [Compound 56] ?
Result: 66.6 mM

---

System: MRSA oc2089
test: MIC, microdilution broth method (NCCLS)
Assay type: cell-based
testConditions: cation supplemented Mueller Hinton broth, 35° C., 16-20 hours; unit assumed
resultType: MIC MRSA oc2089 (µg/mL)
I only need the number, in µg/mL, no unit after it.

Study these solved cases before continuing.
compound="COc1ccc(CC2(CCOc3ccc(CCN)cc3)C=CCCC2)cc1 (stereo not drawn)" valuereported=8
compound="NCCc1ccc(OCCC2(Cc3ccccc3)C=CCCC2)cc1 (stereo not drawn)" valuereported=8

Next, consider the following compound.
Task: Any idea what its MIC MRSA oc2089 is? The compound is COc1ccc(CC2(CCOc3ccc(CCCNC(=N)N)cc3)C=CCCC2)cc1 (stereo not drawn)
Result: 4

---

Measured MIC MRSA oc667 values are reported for all entries that follow.
Test system: MRSA oc667
test: MIC, microdilution broth method (NCCLS)
Format: cell-based
testConditions: cation supplemented Mueller Hinton broth, 35° C., 16-20 hours; unit assumed
Please state the value followed by its unit.

Study these solved cases before continuing.
compound="NCCCc1cnc(NCCC2(Cc3ccccc3)C=CCCC2)nc1 (centres unmarked)" valuereported="32 µg/mL"
compound="COc1ccc(CC2(CCOc3ccc(CCN)cc3)C=CCCC2)cc1 (centres unmarked)" valuereported="8 µg/mL"
compound="Clc1ccc(CC2(CCOc3ccc(CCNCCN4CCCC4)cc3)C=CCCC2)cc1 (centres unmarked)" valuereported="4 µg/mL"

Task: Any idea what its MIC MRSA oc667 is? The compound is NCCc1ccc(OCCC2(Cc3cc(Cl)cc(Cl)c3)C=CCCC2)cc1 (centres unmarked)
Result: 8 µg/mL

Task: Any idea what its MIC MRSA oc667 is? The compound is CNCCCc1ccc(OCCC2(c3ccc(F)cc3)C=CCCC2)cc1 (centres unmarked)
Result: 8 µg/mL
